EXPERIMENTAL_SYSTEM: UniProtKB P50416
Sequence (P50416 whole entry): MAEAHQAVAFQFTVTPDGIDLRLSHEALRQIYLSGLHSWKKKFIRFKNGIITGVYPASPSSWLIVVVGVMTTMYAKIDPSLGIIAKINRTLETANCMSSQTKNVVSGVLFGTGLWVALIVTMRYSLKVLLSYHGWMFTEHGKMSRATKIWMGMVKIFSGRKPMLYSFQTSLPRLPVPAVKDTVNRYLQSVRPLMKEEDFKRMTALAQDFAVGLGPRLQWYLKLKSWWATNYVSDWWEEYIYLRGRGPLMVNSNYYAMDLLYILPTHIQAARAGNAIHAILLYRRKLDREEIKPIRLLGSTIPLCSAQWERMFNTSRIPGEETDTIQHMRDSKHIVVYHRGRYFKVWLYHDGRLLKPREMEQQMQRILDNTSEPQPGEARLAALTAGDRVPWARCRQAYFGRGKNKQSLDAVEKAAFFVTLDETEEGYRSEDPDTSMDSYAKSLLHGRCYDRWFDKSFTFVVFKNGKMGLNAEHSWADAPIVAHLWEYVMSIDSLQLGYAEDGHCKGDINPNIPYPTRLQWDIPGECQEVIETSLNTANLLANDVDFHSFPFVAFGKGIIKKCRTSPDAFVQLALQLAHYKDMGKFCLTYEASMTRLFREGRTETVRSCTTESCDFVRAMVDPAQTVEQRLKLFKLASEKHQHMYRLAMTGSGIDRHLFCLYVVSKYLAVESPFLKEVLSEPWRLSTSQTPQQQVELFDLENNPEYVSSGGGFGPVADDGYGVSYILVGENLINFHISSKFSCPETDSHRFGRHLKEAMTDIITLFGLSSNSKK
METHOD_NOTES: L-CPT1 inhibition, spectrophotometric CPT activity assay with DTNB (Ellman's reagent)
CONDITIONS_USED: human liver CPT1 expressed in P. pastoris, cell extracts; carnitine 500 μM, palmitoyl-CoA 80 μM, DTNB 300 μM, pH 7.4
OBSERVATION_TYPE: IC50 (µM)
State the answer as a number, implicitly in µM.

Some solved cases for reference:
- O=C(COc1ccccc1)N1CCCC[C@@H]1c1nc(-c2ccc(O)cc2)cs1 [Example 16]: 0.0796
- COc1ccc(-c2nc([C@H]3CCCCN3C(=O)COc3ccccc3)cs2)cn1 [Example 33]: 0.0794
- O=C(O)c1cccc(-c2nc([C@H]3CCCCN3C(=O)COc3ccccc3)cs2)c1 [Example 40]: 0.0803

## Task Query: IC50; subject: O=C(COc1ccccc1)N1CCCC[C@@H]1c1nc(-c2ccc(F)c(F)c2)cs1 [Example 7]
## Result 0.286

## Task Moving on to CC(=O)Nc1ccc(-c2csc([C@H]3CCCCN3C(=O)COc3ccccc3)n2)cc1 [Example 15]
## Result 0.0326

## Task Moving on to O=C(COc1ccccc1)N1CCCC[C@@H]1c1nc(-c2ccc3c(c2)OCO3)cs1 [Example 17]
## Result 0.134
